tested on: DMS 273 small cell lung; test: NCI tumour cell line growth inhibition, 48 h
Property Label: TGI (µM)
Give the value in µM but do not write µM after it.

Chem Smiles	Assay System	TGI, µM
COC(=O)[C@@]12OC[C@]34[C@H]([C@@H](O)[C@@H]1O)[C@@]1(C)CC(=O)C(O)=C(C)[C@@H]1C[C@H]3OC(=O)[C@H](OC(=O)/C=C(\C)C(C)C)[C@@H]24	DMS 273 small cell lung	0.000177
CN(C)CCCN1c2ccccc2Sc2ccc(C(F)(F)F)cc21	DMS 273 small cell lung	29.4

Proceeding to the next compound to report its TGI.
May I ask what TGI has been recorded for `N#C[S-].[La+3].c1ccc(-c2ccccn2)nc1.c1ccc(-c2ccccn2)nc1.c1ccc(-c2ccccn2)nc1` ?
88.5
